# assay details: Area of luminescence spectrum of GLuc variants (20-minute lysis, luminescence plate reader)
# Assay type: biochemical
# particulars: plate reader
assay metric: bioluminescence intensity higher than GLuc (area ratio) (times)
Give bare numbers, in times.

Documented bioluminescence intensity higher than GLuc (area ratio) of I90L/I115L: GLuc with isoleucine at positions 90 and 115 replaced with leucine (protein, GLuc mutant (I90L/I115L)) MGVKVLFALICIAVAEAKPTENNEDFNIVAVASNFATTDLDADRGKLPGKKLPLEVLKEMEANARKAGCTRGCLICLSHIKCTPKMKKFLPGRCHTYEGDKESAQGGIGEAIVDLPEIPGFKDLEPMEQFIAQVDLCVDCTTGCLKGLANVQCSDLLKKWLPQRCATFASKIQGQVDKIKGAGGDKDEL : 4.9
